Where do these numbers come from? They come from patent EP1137645B1.

- Test system: HCMV recombinant mutant virus whose genome contains the prokaryotic beta-glucuronidase gene
- Experiment description: microbe, parasite or virus in culture
- Format: cell-based, human cytomegalovirus
- Study conditions: Human betaherpesvirus 5, Fibroblast, read-out: IC50 ug/ml HCMV, HCMV, human foreskin fibroblasts
Result type: log10 IC50 (log10 of the value in µg/mL)
Log scale reminder: IC50 in µg/mL, then log10 taken.

The cases that follow already have their log10 IC50 on record.
COc1cc(OC)c(NC(=S)Nc2ccc(NC(=O)c3cccc(NC(C)=O)c3)cc2)cc1Cl
0.60
CN(c1ccc(NC(=S)Nc2ccc(NC(=O)c3ccccc3F)cc2)cc1Cl)C1CCN(Cc2ccccc2)C1 (centres unmarked)
0.78
CN1CCC(N(C)c2ccc(NC(=S)Nc3ccc(NC(=O)c4c(F)cccc4F)cc3)cc2Cl)CC1
-0.60

I have this molecule here, CN(c1ccc(NC(=S)Nc2ccc(NC(=O)c3c(F)cccc3F)cc2)cc1Cl)C1CCCCC1 , and I need its recorded log10 IC50.
0.30

Next molecule: CC(NC(=S)Nc1ccc(NC(=O)c2ccccc2F)cc1)c1ccc(N(C)C)cc1 (centres unmarked)
0.51

What do you get for CC(C)C(NC(=S)Nc1ccc(NC(=O)c2ccccc2F)cc1)c1ccc(F)cc1 (centres unmarked) ?
0.18

Next molecule: CC(=O)Nc1ccc(NC(=S)Nc2ccc(NC(=O)c3ccccc3F)cc2)cc1Cl
1.00

Subsequent entry: Cc1ccccc1C(=O)Nc1ccc(NC(=S)Nc2ccc(N(C)C3CCN(Cc4ccccc4)C3)c(Cl)c2)cc1 (centres unmarked)
0.48

Also, CCSc1ccc(NC(=S)Nc2ccc(NC(=O)c3ccccc3F)cc2)cc1Cl please.
0.30

Likewise for CC(NC(=S)Nc1ccc(NC(=O)c2ccccc2F)cc1)c1ccc2ccccc2c1 (centres unmarked) ?
0.23

Now try CC(NC(=S)Nc1ccc(NC(=O)c2ccccc2F)cc1)c1cccc(N(C)C)c1 (centres unmarked) .
0.79

And for COc1ccccc1C(=O)Nc1ccc(NC(=S)N[C@@H](C)c2ccc(Br)cc2)cc1 ?
0.69
